Taken from patent US20170224836A1.

A collection of binders and their measured percent inhibition at 1.22 nM ADC, KNS42 cells
Target: T1, human CDH6 on cells (human, UniProt P55285 54-790)
T1 sequence: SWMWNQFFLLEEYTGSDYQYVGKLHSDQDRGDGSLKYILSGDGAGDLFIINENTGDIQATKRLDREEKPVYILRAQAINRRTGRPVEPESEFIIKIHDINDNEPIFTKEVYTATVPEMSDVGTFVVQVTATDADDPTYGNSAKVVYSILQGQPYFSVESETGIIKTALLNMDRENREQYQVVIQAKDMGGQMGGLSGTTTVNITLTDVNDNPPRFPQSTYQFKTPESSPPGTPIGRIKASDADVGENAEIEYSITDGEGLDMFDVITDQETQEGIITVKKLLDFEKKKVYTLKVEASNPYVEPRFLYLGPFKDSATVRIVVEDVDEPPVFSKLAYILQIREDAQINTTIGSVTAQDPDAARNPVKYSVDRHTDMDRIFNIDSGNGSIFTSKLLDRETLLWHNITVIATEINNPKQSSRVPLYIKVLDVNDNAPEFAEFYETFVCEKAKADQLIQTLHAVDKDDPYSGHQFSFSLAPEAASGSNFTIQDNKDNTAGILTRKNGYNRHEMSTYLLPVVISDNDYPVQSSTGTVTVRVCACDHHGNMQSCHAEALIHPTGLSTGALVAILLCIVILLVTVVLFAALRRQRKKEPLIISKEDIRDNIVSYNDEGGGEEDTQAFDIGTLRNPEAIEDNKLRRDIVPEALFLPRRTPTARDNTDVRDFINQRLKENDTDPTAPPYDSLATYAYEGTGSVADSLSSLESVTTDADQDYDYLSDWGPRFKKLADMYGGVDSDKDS
Experiment: cell-based or functional assay
Numbers only; they are read as %.

Task: Entry NOV0692-SMCC-DM1 (antibody, human IgG1, lambda, V domains shown, SMCC-DM1 on primary amines, sites not stated) VH: QVQLVESGGGLVKPGGSLRLSCAASGFTFSRYWMDWVRQAPGKGLEWVGRIKSKANGGITDYAAPVKGRFTISRDDSKNTLYLQMNSLKTEDTAVYYCARGMTFLGIWGQGTLVTVSS VL: DIELTQPPSVSVSPGQTASITCSGDSIGSKYAQWYQQKPGQAPVLVIYYNSERPSGIPERFSGSNSGNTATLTISGTQAEDEADYYCQSWDGQSTIRVFGGGTKLTVLG has what percent inhibition at 1.22 nM ADC, KNS42 cells?
Output: 57.3

Task: Quick one: percent inhibition at 1.22 nM ADC, KNS42 cells of NOV0712-SMCC-DM1 (antibody, human IgG1, kappa, V domains shown, SMCC-DM1 on primary amines, sites not stated) VH: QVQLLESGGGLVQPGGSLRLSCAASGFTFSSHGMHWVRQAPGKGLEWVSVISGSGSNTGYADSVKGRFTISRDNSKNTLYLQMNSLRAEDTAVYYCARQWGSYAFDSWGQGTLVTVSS VL: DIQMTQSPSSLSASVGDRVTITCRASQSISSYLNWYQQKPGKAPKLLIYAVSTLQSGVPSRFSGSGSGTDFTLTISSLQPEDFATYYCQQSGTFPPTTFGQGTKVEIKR ?
Output: 56.8

Task: percent inhibition at 1.22 nM ADC, KNS42 cells for NOV0705-SMCC-DM1 (antibody, human IgG1, lambda, V domains shown, SMCC-DM1 on primary amines, sites not stated) VH: QVQLVQSGAEVKKPGESLKISCKGSGYSFTNYWIGWVRQMPGKGLEWMGFIDPGVSYTRYSPSFQGQVTISADKSISTAYLQWSSLKASDTAMYYCARVLAHSTEYNWPAFWGQGTLVTVSS VL: DIVLTQPPSVSGAPGQRVTISCSGSSSNIGLDYVNWYQQLPGTAPKLLIYRNKQRPSGVPDRFSGSKSGTSASLAITGLQAEDEADYYCQAWAGRTNYVVFGGGTKLTVLG ?
Output: -13.3
